tested on: NCI-H460 lung; assay: NCI tumour cell line growth inhibition, 48 h
Entries and their TGI

molecule	target_or_system	TGI
C=C1CC2(CC(c3ccccc3Cl)OC(c3ccccc3Cl)C2)OC1=O (stereo not given)	NCI-H460 lung	12.6 µM
CC1=C2CC(C)(C)/C=C\C(=O)/C(C)=C\C3=C[C@H](C)C[C@]3(O2)C1=O	NCI-H460 lung	14 µM
CCC(C)C(N)C(=O)NC(CC(N)=O)C(=O)NC(CC(C)C)C(=O)NC(CCCCN)C(=O)NC(C)C(=O)NC(CC(C)C)C(=O)NC(C)C(=O)NC(C)C(=O)NC(CC(C)C)C(=O)NC(C)C(=O)NC(CCCCN)C(=O)NC(CCCCN)C(=O)NC(C(=O)NC(CC(C)C)C(N)=O)C(C)CC (stereo not given)	NCI-H460 lung	28.9 µM
NNC(=O)CC(=O)Nc1cccc(Cl)c1	NCI-H460 lung	> 100 µM
N#Cc1ccc(Cc2ccccn2)cc1Cl	NCI-H460 lung	> 100 µM
Cc1c(O)c(N=Nc2nc3ccccc3s2)c2ccccc2c1O	NCI-H460 lung	> 50 µM
CCOC(=O)CC1COc2ccc3c(c21)OCO3 (stereo not given)	NCI-H460 lung	> 100 µM
CC(=O)Nc1ccc2nc(-c3ccccn3)c(-c3ccccn3)nc2c1	NCI-H460 lung	> 100 µM
CCOC(=O)C(=O)C=P(c1ccccc1)(c1ccccc1)c1ccccc1	NCI-H460 lung	> 100 µM
COC(=O)c1ccc2c(c1)C(=O)c1c-2n(CCCCl)c(=O)c2cc([N+](=O)[O-])ccc12	NCI-H460 lung	> 100 µM
CC(=O)OC1CCC2(C)C(CCC3C2CC(=O)C2(C)C3CC(N3CC3)C2C(C)=O)C1 (stereo not given)	NCI-H460 lung	33.9 µM
CC(=O)OCC1OC(n2ccc(=O)[nH]c2=O)C(OC(C)=O)C(OC(C)=O)C1OC(C)=O (stereo not given)	NCI-H460 lung	> 100 µM
COC(=O)N1CC(=O)C(C(=O)NC23CC4CC(CC(C4)C2)C3)C1 (stereo not given)	NCI-H460 lung	> 100 µM
N#CC1(C#N)NC(c2ccccc2)C(C#N)(C#N)NC1c1ccccc1 (stereo not given)	NCI-H460 lung	> 100 µM
COc1ccc(/C=C2/CSCC3=C2NC(=S)NC3c2ccc(OC)c(OC)c2OC)c(OC)c1OC (stereo not given)	NCI-H460 lung	> 100 µM
Cc1ccc(C2(c3ccc(Cl)cc3)c3ccccc3C3=NCCN32)cc1 (stereo not given)	NCI-H460 lung	20.7 µM
COc1c(C)cc2c(C(C)C)c(O)c(O)c(C=O)c2c1O	NCI-H460 lung	> 100 µM
CSc1c(C2=C(c3cn(C)c4ccccc34)C(=O)NC2=O)c2ccccc2n1C	NCI-H460 lung	> 25 µM
Cc1cc(S(=O)(=O)N2CCNNC2=O)c(S)cc1Cl	NCI-H460 lung	> 100 µM
COc1cc(Oc2c(C)c(Cl)c(OC)c(Cl)c2OC)c2c(c1Cl)COC2=O	NCI-H460 lung	> 100 µM
CC1(C)S[C@@H]2[C@H](N3C(=O)c4ccccc4C3=O)CN2[C@H]1NC(=O)N[C@@H]1N2C[C@@H](N3C(=O)c4ccccc4C3=O)[C@H]2SC1(C)C	NCI-H460 lung	> 100 µM
Cc1ccc2oc(=O)cc(/C(=C3/C=CC=N3)c3ccc[nH]3)c2c1	NCI-H460 lung	3.52 µM
Oc1ccc([C@H]2c3c(O)cc(O)cc3C3c4c(cc(O)cc4[C@@H]2[C@H]2c4cc(O)cc5c4C(c4cc(O)cc(O)c4[C@@H]2c2ccc(O)cc2)[C@@H](c2ccc(O)cc2)O5)O[C@@H]3c2ccc(O)cc2)cc1 (stereo not given in full)	NCI-H460 lung	> 100 µM
CCCCCCCCCCCC(=O)OC[C@H](C[As](=O)(O)O)OC(=O)CCCCCCCCCCC	NCI-H460 lung	16.9 µM
CC(=O)O[C@H]([C@H](OC(C)=O)[C@H](C)OC(C)=O)[C@@H](/C=C/[C@@H]1CC=CC(=O)O1)OC(C)=O	NCI-H460 lung	> 100 µM
